- Study target: T1, UNK ZnF1-3 (human, UniProt Q9C0B0 31-174)
- T1 sequence: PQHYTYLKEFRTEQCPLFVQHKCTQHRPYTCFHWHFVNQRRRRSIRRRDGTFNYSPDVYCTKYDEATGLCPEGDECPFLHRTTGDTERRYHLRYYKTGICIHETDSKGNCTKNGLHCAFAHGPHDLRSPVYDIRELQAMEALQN
- Protocol details: nsRBNS (natural sequence RNA bind-n-seq); RBNS binding buffer (assumed for nsRBNS): 25 mM Tris pH 7.5, 150 mM KCl, 3 mM MgCl2, 0.01% Triton X-100, 500 ug/ml BSA, 20 U/ml SUPERase-In, 4 C; UNK is unkempt and MSI1 is Musashi-1; names of the RNAs are library labels; protein concentration not given here; high values mean tight binding
In all, about 24,000 sequences were measured (“enrichment r”: median about 0.99, highest 2% from about 3.7 on). The sample holds the highest values, similar sequences and a random draw of the others, so the mix is not that of the screen.
Classify as follows. Reported binding signal greater than or equal to 1 enrichment R: true. Reported binding signal below: false.

Below, 6 binders whose answers are already recorded.
binder="chr12:48362563:48362564:+_ENSG00000134291_ENST00000256686|hu_mus|FALSE|FALSE (ssRNA) RNA: GGGAGUUCUACAGUCCGACGAUCUCCGUCAAGCCCUUCGAUAGACCCUUGCGGGGGAAACUGUAAUCACUUUGUAUGGGGAAGGAAAAGAAACGCCAAAAACUUUCCAAAAAGCGGGGGUGGGGUGAGGCGGGAGGGGGAGGUCAACAGAGGAUUGAGCAUCA" class=true
binder="chr9:95013113:95013114:-_ENSG00000196305_ENST00000443024|hu_hu|hu_hu_hu_mus_False|1_88 (ssRNA) RNA: GGGAGUUCUACAGUCCGACGAUCCUCAGUCAGAAAGGGCGUGUAAGGAGCCAUAAGUCUGCACAGAGAAAGCAGGACACUGAACAGUGUCUCCAGAGCCAUGACACAGUCUUCCACCCCACUCUCACCCUUUAACCUUCUGCGCAACAGAGGAUUGAGCAUCA" class=true
binder="126495366_126496508_792_3pUTR_ENSMUSG00000040502_ENSMUST00000040307|mouse|control|control (ssRNA) RNA: GGGAGUUCUACAGUCCGACGAUCAUUAGGCAGGGUUGGUGUGUGCAACGCACUGAGCCGUCACAGCGGCAAGGGCUCAGGAGCUCCCCCUGCUCCGGGCCUUGGAAGCAGAUCCUGCACUGGGGGGUUCGGAGCCCACUGUCCCAACAGAGGAUUGAGCAUCA" class=false
binder="chr7:117217587:117217588:+_ENSMUSG00000061079_ENSMUST00000084727|mus_hu|FALSE|FALSE (ssRNA) RNA: GGGAGUUCUACAGUCCGACGAUCGAUAUAAGCUGUGGUACCAUCUUCCAGCUGAACCGCCUGUAAUGCACUCUGGUCAUAACUAUUACUUUUAGGUAUGGGUACAUGUUGAACAUAGGCCGCAGAACCAUCUUCCAACUGAAUCAACAGAGGAUUGAGCAUCA" class=false
binder="chr1:172123744:172123745:-_ENSMUSG00000026667_ENSMUST00000150821|mus_hu|motif|central (ssRNA) RNA: GGGAGUUCUACAGUCCGACGAUCAAACGCAUUGUUCACACUUUUUAGGAAUAUAGGAAAGUGGAAAAUAAAAGUUCUUUGCGGUUCAGCAGGAAAGAGUUUAAAAGACUUGAAUGGAAAUCAGAAAUUUAGGGAUUUGAGAAACAACAGAGGAUUGAGCAUCA" class=true
binder="chr2:157388114:157388115:+_ENSMUSG00000067786_ENSMUST00000109526|mus_mus|motif|central (ssRNA) RNA: GGGAGUUCUACAGUCCGACGAUCUUGGUGGAGGUGGUCCCUGUCUCCAGGAGCUUACAAUCUAGCUGGGGAGACACGGCGGAUGCACACUUAAACCAGUACAAUUAGCGACUACCACAAUAUUGACCACAACUGCUGCGUGAGCAACAGAGGAUUGAGCAUCA" class=true

I'd appreciate it if you could say whether chr5:145543945:145543946:-_ENSG00000133706_ENST00000545646|hu_hu|hu_hu_hu_mus_True|1_108 (ssRNA) RNA: GGGAGUUCUACAGUCCGACGAUCCUGAAUAGCCAGUGGUGGGAAAUAAUCAAGCCAGUGCUCUGCUUCAGAAAACUUCACUAUGUCGUCAUCAGAGAGCCCAAGGGAUUUCAUAAUGUCCCACUGGUACUUAGAAGAUCCAGCCAACAGAGGAUUGAGCAUCA has binding signal at least equal to 1 enrichment R.
true
